List of pKd values.
# Subject of test: T1, cynomolgus (Macaca fascicularis) ST2L extracellular domain with C-terminal His6 tag (Macaca fascicularis (cynomolgus), UniProt Q01638 19-321 (human entry))
# T1 construct: also called cyno ST2L-ECD; cynoST2L-ECD
# T1 chain: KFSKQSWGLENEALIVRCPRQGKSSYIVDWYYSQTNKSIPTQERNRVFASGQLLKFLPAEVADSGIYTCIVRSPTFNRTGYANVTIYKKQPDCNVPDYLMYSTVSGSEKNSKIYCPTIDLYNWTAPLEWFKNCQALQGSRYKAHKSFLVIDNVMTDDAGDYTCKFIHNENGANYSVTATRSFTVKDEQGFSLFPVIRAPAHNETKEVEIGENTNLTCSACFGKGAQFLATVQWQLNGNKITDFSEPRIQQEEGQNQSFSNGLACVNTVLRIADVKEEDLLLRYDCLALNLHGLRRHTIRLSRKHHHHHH
# Assay text: SPR, mAb captured, ST2L-ECD in solution
Friendly reminder that pKd comes from taking -log10 of the concentration in mol/L.

Worked set:
Binder	Reading
STLM62 (antibody, human IgG2, V domains shown, Mouse hybridoma C2494 cloned into human IgG2 background (STLM62); also called C2494) VH: EVQLQQSVAELVRPGASVKLSCTASAFNIKDDYMHWVKQRPEQGLEWIGRIDPAIGNTEYAPKFQDKATMTADTSSNTAYLQLSSLTSEDTAVYYCALGDFYAMDYWGQGTSVTVSS VL: ETTVTQSPASLSVATGEKVTIRCITNTDIDDVIHWYQQKPGEPPKLLISEGNTLRPGVPSRFSSSGYGTDFVFTIENTLSEDVADYYCLQSDNMLTFGAGTKLELK	10.92
C2521 (antibody, V domains shown, Mouse hybridoma antibody; also called C2521A) VH: QIQLQQSGPELVRPGTSVKISCKASGYTFLTYWMNWVKQRPGQGLEWIGQIFPASGSTYYNEMFKDKATLTVDTSSSTAYMQLSSLTSEDTAVYFCARSENIYYINFQYYFAYWGQGTTLTVSS VL: ILLTQSPAILSVSPGERVSFSCRASQNIGTRMHWYQQRTNGSPRLLIKYASESISGIPSRFSGSGSGTDFTLTISSVESEDIADYYCQQSNTWPFTFGSGTKLEIK	8.43

// pKd lookup, key: ST2M49 (antibody, V domains shown, Phage-derived Fab converted to IgG) VH: EVQLVQSGAEVKKPGESLKISCKGSGYSFTSYWIGWVRQMPGKGLEWMGIIYPGDSYTRYSPSFQGQVTISADKSISTAYLQWSSLKASDTAMYYCARIGGMFDYWGQGTLVTVSS VL: EIVLTQSPATLSLSPGERATLSCRASQSVANALAWYQQKPGQAPRLLIYKASNRATGIPARFSGSGSGTDFTLTISSLEPEDFAVYYCQQYYGWPITFGQGTKVEIK 9.58
